Molecular target: human Orexin 1 receptor (Homo sapiens)
Construct: stably expressing the full-length human Orexin 1 receptor; expressed in transfected cells; host or cells: CHO-K1 (CHO-K1/hOx1), co-expressing the aequorin photoprotein
Sequence (O43613 whole entry): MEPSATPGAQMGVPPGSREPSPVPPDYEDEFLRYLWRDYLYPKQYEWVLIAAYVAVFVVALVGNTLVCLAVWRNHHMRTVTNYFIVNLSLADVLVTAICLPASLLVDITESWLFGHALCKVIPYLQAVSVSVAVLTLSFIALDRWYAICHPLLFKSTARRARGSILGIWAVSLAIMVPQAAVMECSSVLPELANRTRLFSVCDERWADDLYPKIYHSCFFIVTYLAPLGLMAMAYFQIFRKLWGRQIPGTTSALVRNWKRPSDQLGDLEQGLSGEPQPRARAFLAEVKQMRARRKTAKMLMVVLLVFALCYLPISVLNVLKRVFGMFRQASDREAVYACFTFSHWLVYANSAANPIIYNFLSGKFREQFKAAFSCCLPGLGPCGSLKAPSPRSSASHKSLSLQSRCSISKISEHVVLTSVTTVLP
Assay: Assay A: OX1R IP1 (in vitro OX1R potency)
Format: cell-based
Settings: Table 3; 0.5 nM Orexin A; read-out: Assay A OX1R Kb (Orexin A concentration)
The label depends only on Kb: true (1) if it is at least 3 nM, false (0) if it is smaller.

chem_smiles=CCN(C(=O)c1cccc(C)c1-c1nnc(C)o1)[C@@H](C)COc1ncc(C(F)(F)F)cn1 cat="false (0)"
chem_smiles=CCN(C(=O)c1ccc(F)cc1-c1ncccn1)[C@@H](C)COc1ncc(C(F)(F)F)cn1 cat="false (0)"
chem_smiles=CCN(C(=O)c1cc(F)ccc1-n1nccn1)[C@@H](C)COc1ncc(C(F)(F)F)cn1 cat="false (0)"
chem_smiles=CCN(C(=O)c1ccc(OC)cc1-n1nccn1)[C@@H](C)COc1ncc(C(F)(F)F)cn1 cat="false (0)"
chem_smiles=CCN(C(=O)c1cc(C)ccc1-n1nccn1)[C@@H](C)COc1ncc(C(F)(F)F)cn1 cat="false (0)"
chem_smiles=CCN(C(=O)c1ccccc1-c1nc(C)no1)[C@@H](C)COc1ncc(C(F)(F)F)cn1 cat="true (1)"
chem_smiles=CCN(C(=O)c1ccc(C)cc1-n1nccn1)[C@@H](C)COc1ncc(C(F)(F)F)cn1 cat="false (0)"
chem_smiles=CCN(C(=O)c1cc(F)cc(F)c1-n1nccn1)[C@@H](C)COc1ncc(C(F)(F)F)cn1 cat="true (1)"

Reference for the values: patent US10392369B2
